target: Retinoic acid receptor alpha (Homo sapiens)
READOUT TYPE: pIC50
Give bare numbers, as −log10 of the molar value.

Input line: Read off the recorded pIC50 for CC1(C)CC=C(C#Cc2ccccc2)c2cc(/C=C/c3ccc(C(=O)O)cc3)ccc21
Output line: 6.94

###

I'd be grateful if you could share measured inhibition for these entries.
molecular target: Inhibitor of nuclear factor kappa-B kinase subunit beta (Homo sapiens) (UniProt O14920); assay: Inhibition of recombinant IKKbeta (unknown origin) using ulight-IkappaomegaBalpha as substrate at 20 uM after 1 hr by LANCE ultra TR-FRET assay relative to control
Sequence (O14920 whole entry): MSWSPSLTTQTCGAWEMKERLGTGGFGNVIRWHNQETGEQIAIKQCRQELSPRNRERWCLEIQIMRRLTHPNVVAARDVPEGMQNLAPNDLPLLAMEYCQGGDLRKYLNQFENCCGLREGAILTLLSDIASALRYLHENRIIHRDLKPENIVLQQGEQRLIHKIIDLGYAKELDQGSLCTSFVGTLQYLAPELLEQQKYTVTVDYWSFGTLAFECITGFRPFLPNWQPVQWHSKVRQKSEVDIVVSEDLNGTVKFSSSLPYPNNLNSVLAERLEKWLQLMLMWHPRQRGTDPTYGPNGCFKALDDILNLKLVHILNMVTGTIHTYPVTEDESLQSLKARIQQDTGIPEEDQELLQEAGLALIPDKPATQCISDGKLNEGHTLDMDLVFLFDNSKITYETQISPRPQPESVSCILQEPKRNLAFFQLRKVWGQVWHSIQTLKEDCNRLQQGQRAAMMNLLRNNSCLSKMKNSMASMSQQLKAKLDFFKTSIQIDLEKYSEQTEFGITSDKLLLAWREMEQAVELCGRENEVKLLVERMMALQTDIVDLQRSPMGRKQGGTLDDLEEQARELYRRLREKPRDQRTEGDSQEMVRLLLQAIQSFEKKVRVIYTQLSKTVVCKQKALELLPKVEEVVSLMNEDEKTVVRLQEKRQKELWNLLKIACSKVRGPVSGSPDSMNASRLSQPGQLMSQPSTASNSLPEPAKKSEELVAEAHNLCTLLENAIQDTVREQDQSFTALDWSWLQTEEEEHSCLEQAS

>>> readout_value("COCCOCOc1ccc(-c2ncc(/C=C/C(=O)O)s2)cc1C12CC3CC(CC(C3)C1)C2")
"1.9%"

Give me inhibition for each of these compounds, listed below.
1. COc1nc(/C=C/C(=O)O)cnc1-c1cc(C23CC4CC(CC(C4)C2)C3)c(O)cc1C
2. Cc1cc(O)c(C23CC4CC(CC(C4)C2)C3)cc1-c1ccc(CC(=O)O)cc1Cl
3. O=C(O)c1ccc(-c2cnc(-c3ccc(O)c(C45CC6CC(CC(C6)C4)C5)c3)s2)cc1

Output line:
1. 7.3%
2. 4.9%
3. 94.1%

I'm hoping you can list inhibition for every compound here, please.
1. Cc1cc(O)c(C23CC4CC(CC(C4)C2)C3)cc1-c1ccc2cc(C(=O)O)ccc2c1Cl
2. O=C(O)/C=C/c1ccc(-c2ccc(O)c(C34CC5CC(CC(C5)C3)C4)c2)c(Cl)c1

Output line:
1: 96.4%; 2: 40.6%

###

Consider the following compounds; for each one, report its inhibition.
biological target: Inhibitor of nuclear factor kappa-B kinase subunit alpha (Homo sapiens); assay: Inhibition of recombinant IKKalpha (unknown origin) using ulight-IkappaomegaBalpha as substrate at 20 uM after 2 hrs by LANCE ultra TR-FRET assay relative to control
One number for each entry, in %.

>>> readout_value("CC(=O)NCCCOc1cc(/C=C/C(=O)O)ccc1-c1ccc(O)c(C23CC4CC(CC(C4)C2)C3)c1")
5
>>> readout_value("Cc1cc(O)c(C23CC4CC(CC(C4)C2)C3)cc1-c1ccc2cc(C(=O)O)ccc2c1Cl")
87.3
>>> readout_value("COc1nc(-c2ccc(C(=O)O)cc2)cnc1-c1ccc(O)c(C23CC4CC(CC(C4)C2)C3)c1")
78.5

Input line: Using known records, supply inhibition for CC(=O)NCCCOc1cc(/C=C/C(=O)O)ccc1-c1cc(C23CC4CC(CC(C4)C2)C3)c(O)cc1C
Output line: 2.3

###

biological target: Inhibitor of nuclear factor kappa-B kinase subunit beta (Homo sapiens) (UniProt O14920); assay: Inhibition of recombinant IKKbeta (unknown origin) using ulight-IkappaomegaBalpha as substrate at 20 uM after 1 hr by LANCE ultra TR-FRET assay relative to control
Output schema: class label derived from inhibition. Mapping: bottom range: < 5%; center range: ≥ 5% and < 40%; top range: ≥ 40%

See these solved cases before continuing.
>>> answer_label("COCCOCOc1ccc(-c2ncc(/C=C/C(=O)O)nc2OC)cc1C12CC3CC(CC(C3)C1)C2")
"bottom range"
>>> answer_label("COc1nc(/C=C/C(=O)O)cnc1-c1ccc(O)c(C23CC4CC(CC(C4)C2)C3)c1")
"center range"
>>> answer_label("COCCOCOc1ccc(-c2ncc(-c3ccc(C(=O)O)cc3)s2)cc1C12CC3CC(CC(C3)C1)C2")
"top range"
>>> answer_label("Cc1cc(O)c(C23CC4CC(CC(C4)C2)C3)cc1-c1ncc(-c2ccc(C(=O)O)cc2)s1")
"top range"
>>> answer_label("COCCOCOc1cc(C)c(-c2ncc(/C=C/C(=O)O)nc2OC)cc1C12CC3CC(CC(C3)C1)C2")
"bottom range"

Input line: Please indicate the class for COCCOCOc1cc(C)c(-c2ccc(/C=C/C(=O)O)cc2Cl)cc1C12CC3CC(CC(C3)C1)C2 based on its inhibition.
Output line: bottom range

Input line: Exercise: read the entry COc1nc(-c2ccc(C(=O)O)cc2)cnc1-c1ccc(O)c(C23CC4CC(CC(C4)C2)C3)c1 and state which class it falls under.
Output line: top range

Input line: Dear colleague, I would appreciate it if you could identify the bin for COCCOCOc1cc(C)c(-c2ccc3cc(C(=O)O)ccc3c2Cl)cc1C12CC3CC(CC(C3)C1)C2 and reply at your convenience.
Output line: top range

###

Biological target: Retinoic acid receptor alpha (Homo sapiens) (UniProt P10276)
Sequence (whole entry): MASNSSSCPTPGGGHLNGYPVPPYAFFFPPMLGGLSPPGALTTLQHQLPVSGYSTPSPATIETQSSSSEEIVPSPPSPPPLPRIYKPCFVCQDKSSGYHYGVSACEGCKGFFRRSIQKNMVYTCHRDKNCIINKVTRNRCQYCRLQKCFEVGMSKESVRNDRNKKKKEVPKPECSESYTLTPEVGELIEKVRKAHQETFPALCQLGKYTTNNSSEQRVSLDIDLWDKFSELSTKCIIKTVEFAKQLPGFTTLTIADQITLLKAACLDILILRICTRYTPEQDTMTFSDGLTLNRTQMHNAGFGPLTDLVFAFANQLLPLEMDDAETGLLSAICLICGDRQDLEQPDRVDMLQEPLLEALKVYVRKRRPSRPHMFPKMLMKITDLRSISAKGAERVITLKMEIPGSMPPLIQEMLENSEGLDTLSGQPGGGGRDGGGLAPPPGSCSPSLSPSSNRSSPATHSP
Experiment: Agonist activity at Gal4-fused RARalpha (unknown origin) transfected in HEK293 cells assessed as induction of transcriptional activity at 4 uM after 6 hrs by luciferase/beta-galactosidase reporter gene assay relative to control
Assay type: cell-based
READOUT TYPE: fold change (FC)
Numbers only.

>>> readout_value("COCCOCOc1ccc(-c2ncc(-c3ccc(C(=O)O)cc3)s2)cc1C12CC3CC(CC(C3)C1)C2")
1.2
>>> readout_value("COCCOCOc1ccc(-c2ncc(-c3ccc(C(=O)O)cc3)nc2OC)cc1C12CC3CC(CC(C3)C1)C2")
1.1

// below: fold change (FC) requested for another molecule
Input line: Give the value of fold change (FC) reported for the following: COCCOCOc1ccc(-c2ncc(/C=C/C(=O)O)nc2OC)cc1C12CC3CC(CC(C3)C1)C2
Output line: 1.1

###

experiment: Cytotoxicity against human Jurkat T cells assessed as cell viability after 24 hrs by CellTiter-Glo assay; type: functional, cell-based
READOUT TYPE: pIC50
Numbers only, as −log10 of the molar value.

Worked set:
>>> readout_value("COc1nc(-c2ccc(C(=O)O)cc2)cnc1-c1ccc(O)c(C23CC4CC(CC(C4)C2)C3)c1")
5.50
>>> readout_value("COCCOCOc1cc(C)c(-c2ccc3cc(C(=O)O)ccc3c2Cl)cc1C12CC3CC(CC(C3)C1)C2")
5.25
>>> readout_value("Cc1cc(O)c(C23CC4CC(CC(C4)C2)C3)cc1-c1ccc2cc(C(=O)O)ccc2c1Cl")
5.66
>>> readout_value("Cc1cc(O)c(C23CC4CC(CC(C4)C2)C3)cc1-c1ncc(-c2ccc(C(=O)O)cc2)s1")
5.36
>>> readout_value("Cc1cc(O)c(C23CC4CC(CC(C4)C2)C3)cc1-c1ccc(CC(=O)O)cc1Cl")
5.40
>>> readout_value("COCCOCOc1ccc(C(=O)/C=C/c2ccc(C(=O)O)cc2)cc1C12CC3CC(CC(C3)C1)C2")
5.48
>>> readout_value("Cc1cc(O)c(C23CC4CC(CC(C4)C2)C3)cc1-c1ccc(/C=C/C(=O)O)cc1Cl")
5.39
>>> readout_value("COCCOCOc1cc(C)c(-c2ncc(-c3ccc(C(=O)O)cc3)s2)cc1C12CC3CC(CC(C3)C1)C2")
5.24
>>> readout_value("COc1nc(/C=C/C(=O)O)cnc1-c1ccc(O)c(C23CC4CC(CC(C4)C2)C3)c1")
5.30
>>> readout_value("O=C(O)c1ccc(-c2cnc(-c3ccc(O)c(C45CC6CC(CC(C6)C4)C5)c3)s2)cc1")
5.65

# per-item lookup of pIC50; items listed below
1. CC(=O)NCCCOc1cc(/C=C/C(=O)O)ccc1-c1cc(C23CC4CC(CC(C4)C2)C3)c(O)cc1C
2. COc1nc(/C=C/C(=O)O)cnc1-c1cc(C23CC4CC(CC(C4)C2)C3)c(O)cc1C

Output line:
1: 5.58; 2: 5.27

###

Assignment: determine reported inhibition for the given molecules.
molecular target: Inhibitor of nuclear factor kappa-B kinase subunit alpha (Homo sapiens) (UniProt O15111); assay: Inhibition of recombinant IKKalpha (unknown origin) using ulight-IkappaomegaBalpha as substrate at 20 uM after 2 hrs by LANCE ultra TR-FRET assay relative to control
Sequence (O15111 whole entry): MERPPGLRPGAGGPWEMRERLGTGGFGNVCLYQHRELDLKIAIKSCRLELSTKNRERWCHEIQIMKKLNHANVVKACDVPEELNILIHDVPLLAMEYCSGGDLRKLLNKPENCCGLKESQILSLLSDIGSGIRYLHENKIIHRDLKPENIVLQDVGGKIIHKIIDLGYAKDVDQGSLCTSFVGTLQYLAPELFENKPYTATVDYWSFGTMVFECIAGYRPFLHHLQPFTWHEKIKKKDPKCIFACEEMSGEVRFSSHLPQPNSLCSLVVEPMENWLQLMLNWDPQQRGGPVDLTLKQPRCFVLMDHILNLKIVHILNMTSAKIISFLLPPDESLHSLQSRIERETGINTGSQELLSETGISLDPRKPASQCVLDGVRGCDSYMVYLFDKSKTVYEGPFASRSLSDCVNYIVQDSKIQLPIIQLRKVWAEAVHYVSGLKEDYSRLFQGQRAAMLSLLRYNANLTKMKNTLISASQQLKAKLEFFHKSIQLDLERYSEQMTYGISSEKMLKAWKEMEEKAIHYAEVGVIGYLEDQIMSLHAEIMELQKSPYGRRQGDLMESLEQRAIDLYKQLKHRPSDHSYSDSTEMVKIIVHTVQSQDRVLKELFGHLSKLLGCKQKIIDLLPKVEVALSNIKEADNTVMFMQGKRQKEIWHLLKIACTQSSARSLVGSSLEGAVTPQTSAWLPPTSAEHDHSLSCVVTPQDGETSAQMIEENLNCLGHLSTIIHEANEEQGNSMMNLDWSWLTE
One number for each entry, in %.

# count of solved cases: 3
>>> readout_value("O=C(O)/C=C/c1cnc(-c2ccc(O)c(C34CC5CC(CC(C5)C3)C4)c2)s1")
32.8
>>> readout_value("COCCOCOc1cc(C)c(-c2ccc(/C=C/C(=O)O)cc2Cl)cc1C12CC3CC(CC(C3)C1)C2")
13.5
>>> readout_value("COCCOCOc1ccc(C(=O)/C=C/c2ccc(C(=O)O)cc2)cc1C12CC3CC(CC(C3)C1)C2")
56.3

Items follow; give inhibition for each.
1. COCCOCOc1cc(C)c(-c2ccc(CC(=O)O)cc2Cl)cc1C12CC3CC(CC(C3)C1)C2
2. COCCOCOc1ccc(-c2ncc(/C=C/C(=O)O)nc2OC)cc1C12CC3CC(CC(C3)C1)C2

Output line:
1: 42.3; 2: 4.2

Answer for every listed entry: what is its inhibition? The entries follow.
1. Cc1cc(O)c(C23CC4CC(CC(C4)C2)C3)cc1-c1ncc(-c2ccc(C(=O)O)cc2)s1
2. COCCOCOc1cc(C)c(-c2ncc(-c3ccc(C(=O)O)cc3)s2)cc1C12CC3CC(CC(C3)C1)C2
3. Cc1cc(O)c(C23CC4CC(CC(C4)C2)C3)cc1-c1ncc(/C=C/C(=O)O)s1
4. COCCOCOc1cc(C)c(-c2ncc(/C=C/C(=O)O)nc2OC)cc1C12CC3CC(CC(C3)C1)C2

Output line:
87.9
73.3
46.6
45.7
